- targetOrSystem: Proteasome Macropain subunit MB1 (Homo sapiens, UniProt P28074)
- Sequence (P28074 whole entry): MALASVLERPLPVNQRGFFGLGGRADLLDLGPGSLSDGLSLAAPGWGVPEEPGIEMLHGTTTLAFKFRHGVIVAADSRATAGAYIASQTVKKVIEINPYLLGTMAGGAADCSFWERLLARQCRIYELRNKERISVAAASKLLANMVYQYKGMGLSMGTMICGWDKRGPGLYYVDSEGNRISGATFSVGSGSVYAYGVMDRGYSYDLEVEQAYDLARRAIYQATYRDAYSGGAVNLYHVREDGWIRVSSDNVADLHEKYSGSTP
- assayComment: Inhibition of chymotrypsin like activity of 20S proteasome (unknown origin) using suc-leu-leu-val-tyr-AMC as substrate after 40 mins in presence of 100 nM copper by fluorescence assay
observationType: IC50 (µM)
Write down the numeric answer in µM and omit the unit.

*Q* Write down IC50 measured for item O=C1COc2c1ccc(O)c2O
*A* 3
